Molecular target: T1, plasma-membranous human MSLN on cell lines (H226, HPAC, H292, OVCAR-3, MeT-5A) (human, UniProt Q13421 296-598)
T1 construct: whole, on cells; also called human MSLN on H226 cells; mesothelin on target cells
Assay: cELISA on H226 cells, HRP-Protein L
result_type: rel. Maximum binding (OD450-690 nm, scFv/OD450-690 nm, Amatuximab) (ratio)

1) anti-MSLN scFv PRO1922 (scFv, also called 54-21-H03-sc01) scFv: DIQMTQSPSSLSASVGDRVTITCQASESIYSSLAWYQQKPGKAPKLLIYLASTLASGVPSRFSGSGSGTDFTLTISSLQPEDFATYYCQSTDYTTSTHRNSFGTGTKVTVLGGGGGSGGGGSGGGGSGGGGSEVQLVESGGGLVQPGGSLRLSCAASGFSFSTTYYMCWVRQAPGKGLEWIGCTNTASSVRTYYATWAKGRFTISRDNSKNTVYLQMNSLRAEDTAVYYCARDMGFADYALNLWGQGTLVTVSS | 0.61
2) anti-MSLN scFv PRO2306 (scFv, also called 54-32-A07-sc06; PRO1925-S14R-T87R-T22K) scFv: ALQMTQSPSSLSARVGDRVTIKCQASQSISNYLAWYQQKPGKPPKFLIYDASDLASGVPSRFSGSGSGRDFTLTISSLQPEDFATYYCQQVYDSNNVENVFGTGTKVTVLGGGGGSGGGGSGGGGSGGGGSQSQLVESGGGLVQPGGSLRLSCAVSGFSLSSYAMGWVRQAPGKGLEYIGYISKIGTTYYASWAKGRFTISKDNSKNTVYLQMNSLRAEDTAVYFCARGSSSGGYLDDGFDPWGQGTLVTVSS | 0.55
